The origin of these recorded values is PubChem BioAssay (NCI).

System: HCC-2998 colon
ASSAY DETAILS: NCI-60 one-dose screen, 48 h (100 = growth as untreated, 0 = no growth, -100 = all killed)
CONDITIONS: 10 µM unless noted
Compounds without any hit were thinned out: in the full panel of roughly 83,000, 20% have a hit.
Short version: growth at least 40% is satisfied, less is not satisfied.

Query :: Does "O=c1[nH][n+](-c2ccc(Cl)cc2)no1" have a reported growth of at least 40%?
Result :: not satisfied

Query :: Does "Cc1cc(=O)oc2c1ccc1oc(C#N)c(C)c12" have a reported growth of at least 40%?
Result :: satisfied

Query :: Does "COc1ccc(-c2csc(C3=C(O)CN(CCCN4CCCC4=O)C3=N)n2)cc1OC" have a reported growth of at least 40%?
Result :: satisfied

Query :: Does "N#Cc1c(N)nc(NCCO)nc1-c1ccc(F)cc1" have a reported growth of at least 40%?
Result :: satisfied

Query :: Does "N#Cc1c(N)nn(C(=O)c2ccc(NC(=O)c3ccccn3)cc2)c1-c1ccc(Cl)cc1" have a reported growth of at least 40%?
Result :: not satisfied
